ASSAY INFO: Phase 1 double-masked multiple-dose plasma PK study of roflumilast topical ophthalmic suspension (0.3%)
Format: in vivo, human
REPORTED CONDITIONS: human, plasma, other: topical ophthalmic eye drops, 0.3 % suspension, single drop in each eye BID, Group 1, Day 8; read-out: C12 (trough) Geometric Mean
Protocol: A pharmacokinetic (PK) study of a roflumilast topical ophthalmic suspension was conducted. Data at Day 1 (Example 15), Day 8 (Example 16), and comparative data (Example 17) is provided. The study was a Phase 1, double-masked, multiple-dose study conducted in healthy volunteers. […] Roflumilast topical ophthalmic suspension and roflumilast n-oxide (metabolite) concentrations in plasma were evaluated using Phoenix™ WinNonlin® version and 8.4 (Pharsight Corporation, USA). […]
QUANTITY MEASURED: concentration at 12 h (ng/mL)

O=C(Nc1c(Cl)cncc1Cl)c1ccc(OC(F)F)c(OCC2CC2)c1    0.46

---

ASSAY INFO: Phase 1 double-masked multiple-dose plasma PK study of roflumilast topical ophthalmic suspension (0.3%)
Format: in vivo, human
REPORTED CONDITIONS: human, plasma, other: topical ophthalmic eye drops, 0.3 % suspension, single drop in each eye BID, plasma, Day 1, mean, to 24 hr post-first dose; read-out: Clast
Description: A pharmacokinetic (PK) study of a roflumilast topical ophthalmic suspension was conducted. Data at Day 1 (Example 15), Day 8 (Example 16), and comparative data (Example 17) is provided. The study was a Phase 1, double-masked, multiple-dose study conducted in healthy volunteers. […] Roflumilast topical ophthalmic suspension and roflumilast n-oxide (metabolite) concentrations in plasma were evaluated using Phoenix™ WinNonlin® version and 8.4 (Pharsight Corporation, USA). […]
QUANTITY MEASURED: concentration at 24 h (ng/mL)

O=C(Nc1c(Cl)cncc1Cl)c1ccc(OC(F)F)c(OCC2CC2)c1    0.51

---

ASSAY INFO: Phase 1 double-masked multiple-dose plasma PK study of roflumilast topical ophthalmic suspension (0.3%)
Type: in vivo, human
REPORTED CONDITIONS: human, plasma, other: topical ophthalmic eye drops, 0.3 % suspension, single drop in each eye BID, plasma, Day 1, mean, 12 hr post-first dose; read-out: C12
QUANTITY MEASURED: concentration at 12 h (ng/mL)

O=C(Nc1c(Cl)cncc1Cl)c1ccc(OC(F)F)c(OCC2CC2)c1 [Roflumilast]    0.29

---

ASSAY INFO: Phase 1 double-masked multiple-dose plasma PK study of roflumilast topical ophthalmic suspension (0.3%)
Assay type: in vivo, human
REPORTED CONDITIONS: human, plasma, other: topical ophthalmic eye drops, 0.3 % suspension, single drop in each eye BID, Group 1, Day 1; read-out: C12 (trough) Geometric Mean
QUANTITY MEASURED: concentration at 12 h (ng/mL)

O=C(Nc1c(Cl)cncc1Cl)c1ccc(OC(F)F)c(OCC2CC2)c1    0.24

---

ASSAY INFO: Phase 1 double-masked multiple-dose plasma PK study of roflumilast topical ophthalmic suspension (0.3%)
Format: in vivo, human
REPORTED CONDITIONS: human, plasma, other: topical ophthalmic eye drops, 0.3 % suspension, single drop in each eye BID, plasma, Day 1, mean; 0.3% suspension 1 drop each eye BID; read-out: Cmax
QUANTITY MEASURED: Cmax (ng/mL)

O=C(Nc1c(Cl)cncc1Cl)c1ccc(OC(F)F)c(OCC2CC2)c1 [Roflumilast]    0.59

---

ASSAY INFO: Phase 1 double-masked multiple-dose plasma PK study of roflumilast topical ophthalmic suspension (0.3%)
Format: in vivo, human
REPORTED CONDITIONS: human, plasma, other: topical ophthalmic eye drops, 0.3 % suspension, single drop in each eye BID, Group 1, Day 8; read-out: AUC0-tau Geometric Mean
QUANTITY MEASURED: AUC (ng·h/mL)

O=C(Nc1c(Cl)cncc1Cl)c1ccc(OC(F)F)c(OCC2CC2)c1    6.88

---

ASSAY INFO: Phase 1 double-masked multiple-dose plasma PK study of roflumilast topical ophthalmic suspension (0.3%)
Assay type: in vivo, human
REPORTED CONDITIONS: human, plasma, other: topical ophthalmic eye drops, 0.3 % suspension, single drop in each eye BID, Group 1, Day 1; read-out: Cmax Geometric Mean
QUANTITY MEASURED: Cmax (ng/mL)

O=C(Nc1c(Cl)cncc1Cl)c1ccc(OC(F)F)c(OCC2CC2)c1    0.47

---

ASSAY INFO: Phase 1 double-masked multiple-dose plasma PK study of roflumilast topical ophthalmic suspension (0.3%)
Type: in vivo, human
REPORTED CONDITIONS: human, plasma, topical or ocular, 0.3 % suspension, single drop in each eye BID, plasma, Day 8, mean (SD); topical ocular 0.3% BID 7 days + morning dose; read-out: Cmax
Experimental: A pharmacokinetic (PK) study of a roflumilast topical ophthalmic suspension was conducted. Data at Day 1 (Example 15), Day 8 (Example 16), and comparative data (Example 17) is provided. The study was a Phase 1, double-masked, multiple-dose study conducted in healthy volunteers. […] Roflumilast topical ophthalmic suspension and roflumilast n-oxide (metabolite) concentrations in plasma were evaluated using Phoenix™ WinNonlin® version and 8.4 (Pharsight Corporation, USA). […]
QUANTITY MEASURED: Cmax (ng/mL)

O=C(Nc1c(Cl)cncc1Cl)c1ccc(OC(F)F)c(OCC2CC2)c1    0.94
